Test system: H37Rv strain of Mycobacterium tuberculosis
PROCEDURE DETAILS: microbe, parasite or virus in culture
Assay type: cell-based
COND: Mycobacterium tuberculosis, H37RV; read-out: MIC
Listed next: entries and their corresponding MIC.

# COMPOUND, MIC
rows = [
    ("COc1ccccc1CCNCCN[C@@H]1C[C@@H]2CC([C@H]1C)C2(C)C [Compound 151]", "15.6 µM"),
    ("NNC(=O)c1ccncc1 [INH, Isoniazid]", "0.91 µM"),
    ("CC1CCCC(NCCNCC(c2ccccc2)c2ccccc2)C1C (stereo not drawn) [Compound 29]", "62.5 µM"),
    ("c1ccc(C2CC2NCCNC2CCCCCCC2)cc1 (stereo not drawn) [Compound 63]", "62.5 µM"),
    ("C[C@@H]1[C@@H](NCCNC2CCCCCCC2)C[C@H]2C[C@@H]1C2(C)C [Compound 53]", "31.2 µM"),
    ("CC[C@@H](CO)NCCNC1CCCCCCC1 [Compound 56]", "500 µM"),
    ("CC1CC(C)CN(CCNCCC(c2ccccc2)c2ccccc2)C1 (stereo not drawn) [Compound 15]", "> 500 µM"),
    ("C[C@@H]1C2C[C@@H](C[C@H]1NCCNC(c1ccccc1)c1ccccc1)C2(C)C [Compound 71]", "62.5 µM"),
    ("CC(C)=CCC/C(C)=C/CNCCNC1C2CC3CC(C2)CC1C3 (stereo not drawn) [Compound 109]", "1.95 µM"),
    ("CC[C@@H](CO)NCCN[C@@H](CC)CO [EMB, Ethambutol, reference compound]", "7.19 µM"),
    ("c1ccc(C2CC2NCCNC2C3CC4CC(C3)CC2C4)cc1 (stereo not drawn) [Compound 64]", "31.2 µM"),
    ("CCC(CO)NCCN[C@@H]1C[C@@H]2CC([C@H]1C)C2(C)C (mixture of isomers) [Compound 68]", "500 µM"),
]
